Target: UniProtKB A6XA80
Sequence (A6XA80 whole entry): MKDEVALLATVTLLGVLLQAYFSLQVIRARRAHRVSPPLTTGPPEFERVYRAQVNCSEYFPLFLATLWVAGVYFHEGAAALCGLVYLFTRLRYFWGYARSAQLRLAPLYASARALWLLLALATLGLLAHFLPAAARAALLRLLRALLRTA
Format: tissue-based, Lung
measurement-label: IC50

>>> reported_value("C[C@](O)(CS(=O)(=O)c1ccc(F)cc1)C(=O)Nc1ccc(C#N)c(C(F)(F)F)c1 [(R)-BICALUTAMIDE]")
"Not Active"
>>> reported_value("O=C1CCC(N2C(=O)c3ccccc3C2=O)C(=O)N1 (stereo not drawn) [THALIDOMIDE]")
"Not Active"
>>> reported_value("C[C@@H]1C[C@@H]([C@H](O)CC2CC(=O)NC(=O)C2)C(=O)[C@@H](C)C1 [CYCLOHEXIMIDE]")
"Not Active"
>>> reported_value("COc1ccc2cc([C@H](C)C(=O)O)ccc2c1")
"Not Active"
>>> reported_value("COCCOC(=O)C1=C(C)NC(C)=C(C(=O)OC(C)C)C1c1cccc([N+](=O)[O-])c1 (stereo not drawn)")
"Not Active"
>>> reported_value("COc1cccc2c1C(=O)c1c(O)c3c(c(O)c1C2=O)C[C@@](O)(C(=O)CO)C[C@@H]3O[C@H]1C[C@H](N)[C@H](O)[C@H](C)O1")
"Not Active"

Give its IC50 value. Item: CN(C)c1ccc(C(=C2C=CC(=[N+](C)C)C=C2)c2ccc(N(C)C)cc2)cc1.[Cl-] Not Active

Give its IC50 value. Item: CC1=C(CC(=O)O)c2cc(F)ccc2/C1=C\c1ccc([S+](C)[O-])cc1 (stereo not drawn) Not Active

----------
Experiment: DRUGMATRIX: ATPase, Na+/K+ enzyme inhibition (substrate: ATP)
Assay type: tissue-based, Sus scrofa, Heart
Conditions: Not Active = under 50% inhibition at 10 µM
measurement-label: IC50

Observe how each entry below is paired with its result.
>>> reported_value("CC1(C)O[C@@H]2C[C@H]3[C@@H]4C[C@H](F)C5=CC(=O)C=C[C@]5(C)[C@H]4[C@@H](O)C[C@]3(C)[C@]2(C(=O)CO)O1 [FLUNISOLIDE]")
"Not Active"
>>> reported_value("Cc1ccc(S(=O)(=O)NC(=O)NN2CC3CCCC3C2)cc1 (configuration not stated) [GLICLAZIDE]")
"Not Active"
>>> reported_value("CCCCOc1ccc(OCCCN2CCOCC2)cc1")
"Not Active"
>>> reported_value("Oc1ccc(OCc2ccccc2)cc1")
"Not Active"
>>> reported_value("Nc1ccn([C@@H]2CS[C@H](CO)O2)c(=O)n1")
"Not Active"
>>> reported_value("COc1ccc2cc([C@H](C)C(=O)O)ccc2c1")
"Not Active"

Give its IC50 value. Item: COC(=O)C1=C(C)NC(C)=C(C(=O)OCC(C)C)C1c1ccccc1[N+](=O)[O-] (configuration not stated) Not Active

Give its IC50 value. Item: CC(=O)OCC(=O)[C@@]1(O)CC[C@H]2[C@@H]3CCC4=CC(=O)CC[C@]4(C)[C@H]3C(=O)C[C@@]21C [CORTISONE ACETATE] Not Active

Give its IC50 value. Item: O=S(=O)([O-])CCS.[Na+] Not Active

Give its IC50 value. Item: CC(C)(C(=O)c1cccnc1)c1cccnc1 Not Active

Give its IC50 value. Item: CN(C)/N=N/c1[nH]cnc1C(N)=O Not Active

Give its IC50 value. Item: O=c1ccc2ccccc2o1 Not Active

Give its IC50 value. Item: CC1(C)O[C@@H]2C[C@H]3[C@@H]4C[C@H](F)C5=CC(=O)CC[C@]5(C)[C@H]4[C@@H](O)C[C@]3(C)[C@]2(C(=O)CO)O1 [FLURANDRENOLIDE] Not Active

Give its IC50 value. Item: COc1cc2c(c3oc(=O)c4c(c13)CCC4=O)[C@@H]1C=CO[C@@H]1O2 Not Active

Give its IC50 value. Item: COc1ccc2[nH]c([S+]([O-])Cc3ncc(C)c(OC)c3C)nc2c1 (configuration not stated) Not Active

Give its IC50 value. Item: CC(C)(Oc1ccc(C2CCCc3ccccc32)cc1)C(=O)O (configuration not stated) Not Active

Give its IC50 value. Item: CC1=C(C(=O)O)N2C(=O)[C@@H](NC(=O)[C@H](N)c3ccccc3)[C@H]2SC1 [CEPHALEXIN ANHYDROUS] Not Active

Give its IC50 value. Item: Cc1onc(-c2ccccc2)c1-c1ccc(S(N)(=O)=O)cc1 Not Active

Give its IC50 value. Item: [Cl-].[Cl-].[Zn+2] [ZINC CHLORIDE] Not Active

Give its IC50 value. Item: O=C(O)Cc1ccccc1Nc1c(Cl)cccc1Cl Not Active

Give its IC50 value. Item: CCOC(=O)C1=C(C)NC(C)=C(C(=O)OC)C1c1cccc([N+](=O)[O-])c1 (configuration not stated) Not Active

Give its IC50 value. Item: CC(=O)CC(c1ccccc1)c1c(O)c2ccccc2oc1=O (configuration not stated) Not Active

Give its IC50 value. Item: O=C(C1CCCCC1)N1CC(=O)N2CCc3ccccc3C2C1 (configuration not stated) Not Active

----------
Target: Carbonic anhydrase 2 (Homo sapiens)
Assay: DRUGMATRIX: Carbonic Anhydrase II enzyme inhibition (substrate: 4-Nitrophenyl acetate (4-NPA))
Format: tissue-based, Erythrocyte
Details: erythrocyte; Not Active = under 50% inhibition at 10 µM
measurement-label: IC50

>>> reported_value("C[C@H]1O[C@@H](O[C@H]2[C@@H](O)C[C@H](O[C@H]3[C@@H](O)C[C@H](O[C@H]4CC[C@@]5(C)[C@H](CC[C@@H]6[C@@H]5CC[C@]5(C)[C@@H](C7=CC(=O)OC7)CC[C@]65O)C4)O[C@@H]3C)O[C@@H]2C)C[C@H](O)[C@@H]1O")
"Not Active"
>>> reported_value("CC(=O)OCC(=O)[C@@]1(O)CC[C@H]2[C@@H]3CCC4=CC(=O)CC[C@]4(C)[C@H]3C(=O)C[C@@]21C [CORTISONE ACETATE]")
"Not Active"

----------
Target: 5-hydroxytryptamine receptor 6 (Homo sapiens); also: in other assays of this panel Not Active means under 50% inhibition at 10 µM
Sequence (P50406 whole entry): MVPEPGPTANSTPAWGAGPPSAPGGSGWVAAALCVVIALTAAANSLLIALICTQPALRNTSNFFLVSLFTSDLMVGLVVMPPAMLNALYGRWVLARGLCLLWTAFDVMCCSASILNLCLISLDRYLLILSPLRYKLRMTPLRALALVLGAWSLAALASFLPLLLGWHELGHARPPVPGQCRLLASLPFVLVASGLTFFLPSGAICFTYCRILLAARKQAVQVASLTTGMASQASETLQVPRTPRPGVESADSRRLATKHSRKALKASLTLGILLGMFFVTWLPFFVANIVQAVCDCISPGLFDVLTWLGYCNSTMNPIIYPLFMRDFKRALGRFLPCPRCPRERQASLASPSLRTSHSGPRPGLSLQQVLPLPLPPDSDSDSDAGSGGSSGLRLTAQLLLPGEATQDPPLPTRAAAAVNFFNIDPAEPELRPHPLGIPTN
Format: cell membranes, HeLa, Membrane
Details: hela
measurement-label: IC50

Observe how each entry below is paired with its result.
>>> reported_value("CC(=O)OCC(=O)[C@@]1(O)CC[C@H]2[C@@H]3CCC4=CC(=O)CC[C@]4(C)[C@H]3C(=O)C[C@@]21C [CORTISONE ACETATE]")
"Not Active"
>>> reported_value("C[C@]1(Cn2ccnn2)[C@H](C(=O)O)N2C(=O)C[C@H]2S1(=O)=O")
"Not Active"
>>> reported_value("COP(=O)(OC)OC=C(Cl)Cl")
"Not Active"
>>> reported_value("CNC(=C[N+](=O)[O-])NCCSCc1ccc(CN(C)C)o1")
"Not Active"
>>> reported_value("C[C@]12CC[C@@H]3c4ccc(O)cc4CC[C@H]3[C@@H]1CC[C@@H]2O")
"Not Active"
>>> reported_value("CN1C(C(=O)Nc2ccccn2)=C(O)c2sccc2S1(=O)=O")
"Not Active"
>>> reported_value("CC(C)[C@H]1CC[C@H](C(=O)N[C@H](Cc2ccccc2)C(=O)O)CC1 [NATEGLINIDE]")
"Not Active"
>>> reported_value("CC(C)(Oc1ccc(C2CCCc3ccccc32)cc1)C(=O)O (stereo not drawn)")
"Not Active"

Give its IC50 value. Item: [Cl-].[Cl-].[Zn+2] [ZINC CHLORIDE] Not Active

----------
Each record here notes measured pIC50.
Molecular target: Mitogen-activated protein kinase 14 (Homo sapiens, UniProt Q16539); also: in other assays of this panel Not Active means under 50% inhibition at 10 µM;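 also: inhibition of p38alpha enzyme activity in a biochemical kinase assay, with myelin basic protein serving as substrate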
Sequence (Q16539 whole entry): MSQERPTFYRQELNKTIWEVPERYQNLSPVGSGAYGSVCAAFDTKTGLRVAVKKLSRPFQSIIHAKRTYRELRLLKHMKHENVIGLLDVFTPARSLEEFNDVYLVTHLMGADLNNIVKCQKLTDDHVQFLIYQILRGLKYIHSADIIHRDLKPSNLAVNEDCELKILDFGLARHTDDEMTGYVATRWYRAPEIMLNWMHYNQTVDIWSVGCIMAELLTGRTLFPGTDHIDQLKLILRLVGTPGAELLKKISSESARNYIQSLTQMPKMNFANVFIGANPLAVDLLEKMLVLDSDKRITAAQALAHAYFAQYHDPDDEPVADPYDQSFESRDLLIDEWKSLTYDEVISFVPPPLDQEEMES
Design: species or system Escherichia coli
Conditions: read-out: IC50
The quantity pIC50 is defined as the negative base-10 logarithm of the molar concentration.

>>> reported_value("CC/C(=C(/CC)c1ccc(O)cc1)c1ccc(O)cc1")
4.48

Give recorded pIC50 with Mitogen-activated protein kinase 14 (Homo sapiens, UniProt Q16539) for the following molecule: CC(C)(Oc1ccc(C2CCCc3ccccc32)cc1)C(=O)O (stereo not drawn) 5.43

Give recorded pIC50 with Mitogen-activated protein kinase 14 (Homo sapiens, UniProt Q16539) for the following molecule: Cc1ccccc1C(=O)N1CCC(Cc2ccccc2)CC1 6.48

----------
Each record here notes measured pIC50.
Biological target: 5-hydroxytryptamine receptor 2B (Homo sapiens); also: in other assays of this panel Not Active means under 50% inhibition at 10 µM
Sequence (P41595 whole entry): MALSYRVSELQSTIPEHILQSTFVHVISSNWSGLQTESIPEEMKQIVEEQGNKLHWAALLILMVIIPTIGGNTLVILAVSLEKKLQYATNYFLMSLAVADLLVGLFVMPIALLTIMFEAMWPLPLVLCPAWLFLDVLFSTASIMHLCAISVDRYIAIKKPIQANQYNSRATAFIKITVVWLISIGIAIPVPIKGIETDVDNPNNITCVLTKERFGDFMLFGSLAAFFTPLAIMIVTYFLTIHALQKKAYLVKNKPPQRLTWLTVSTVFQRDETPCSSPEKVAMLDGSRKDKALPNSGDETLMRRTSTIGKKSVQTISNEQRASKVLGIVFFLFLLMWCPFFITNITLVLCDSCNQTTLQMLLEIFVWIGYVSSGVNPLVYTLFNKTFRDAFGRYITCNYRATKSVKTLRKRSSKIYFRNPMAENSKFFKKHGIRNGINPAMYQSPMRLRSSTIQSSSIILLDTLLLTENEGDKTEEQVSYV
Assay type: cell membranes, CHO-K1, Membrane
Conditions: read-out: IC50
The quantity pIC50 is defined as the negative base-10 logarithm of the molar concentration.

Observe how each entry below is paired with its result.
>>> reported_value("Cc1ccccc1C(=O)N1CCC(Cc2ccccc2)CC1")
5.73
>>> reported_value("O=C1CC2(CCCC2)CC(=O)N1CCCCN1CCN(c2ncccn2)CC1")
6.12
>>> reported_value("Cc1nccn1CC1CCc2c(c3ccccc3n2C)C1=O (stereo not given)")
6.14
>>> reported_value("C[C@]12CC[C@@H]3c4ccc(OC(=O)c5ccccc5)cc4CC[C@H]3[C@@H]1CC[C@@H]2O [ESTRADIOL BENZOATE]")
4.94

Let us examine a further case.
Give its pIC50 value. Item: S=C=Nc1cccc2ccccc12 [1-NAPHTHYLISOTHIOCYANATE] 4.60
